target: c-Myc/Max/Ebox DNA (Homo sapiens, UniProt P01106); construct: his6 (cleaved yes); assay: c-Myc/Max/Ebox DNA AlphaScreen Assay; assay type: binding; settings: Table 2, compounds of FIG. 1; calculated IC50 class
Sequence (P01106 whole entry): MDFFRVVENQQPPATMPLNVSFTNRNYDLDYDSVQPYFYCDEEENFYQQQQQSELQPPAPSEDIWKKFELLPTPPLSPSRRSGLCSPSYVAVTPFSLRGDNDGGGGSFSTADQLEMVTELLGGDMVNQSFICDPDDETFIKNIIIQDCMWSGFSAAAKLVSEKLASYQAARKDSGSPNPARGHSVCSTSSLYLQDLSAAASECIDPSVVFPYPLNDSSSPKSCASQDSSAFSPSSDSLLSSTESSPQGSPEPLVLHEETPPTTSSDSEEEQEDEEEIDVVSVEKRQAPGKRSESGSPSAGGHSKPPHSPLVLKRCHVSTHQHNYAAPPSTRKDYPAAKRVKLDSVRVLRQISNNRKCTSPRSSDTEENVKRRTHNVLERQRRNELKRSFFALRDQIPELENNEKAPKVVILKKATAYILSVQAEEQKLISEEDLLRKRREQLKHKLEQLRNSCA
pIC50: −log10 of the molar value. Where a name gives a salt, the structure may show the parent alone.
assay_readout: pIC50

// worked examples, pIC50 included
compound	pIC50
COCCNCCC(=O)Nc1sc2c(c1-c1nc3cc(F)ccc3s1)C[C@H](C)NC2 [Compound 571]	> 6.52
COCCN(CCOC)CCC(=O)Nc1sc2c(c1-c1nc3ccccc3s1)CCNC2 [Compound 309]	< 5.00
CCNCCC(=O)Nc1sc2c(c1-c1nc3ccccc3s1)CCN(C(C)C)C2 [Compound 540]	6.00 to 6.52
COCCNCCC(=O)Nc1sc2c(c1-c1nc3c(OC)cccc3s1)CCNC2 [Compound 613, dihydrochloride]	5.00 to 6.00
Cc1ncsc1-c1ccc(CNC(=O)[C@@H]2C[C@@H](O)CN2C(=O)[C@@H](NC(=O)CCOCCOCCOCCOCCOCCOCCNCCC(=O)Nc2sc3c(c2-c2nc4ccccc4s2)CCNC3)C(C)(C)C)cc1 [Compound 591]	< 5.00
CC(C)NCCC(=O)Nc1sc2c(c1-c1nc3cc(N4CCOCC4)ccc3s1)CCNC2 [compound 302]	> 6.52
COCCNCCC(=O)Nc1sc2c(c1-c1nc3ccccc3s1)CC(C)NC2C (centres unmarked) [Compound 506]	6.00 to 6.52

Moving on to the next compound.
Challenge: Look up and report measured pIC50 (c-Myc/Max/Ebox DNA (Homo sapiens, UniProt P01106)) for the following compound: COCCNCCC(=O)Nc1sc2c(c1-c1nc3cc(-c4ccc(C#N)nc4)ccc3s1)CCNC2 [compound 405]
Response given: > 6.52
